measurement target: Phosphatidylinositol 4-kinase beta (Homo sapiens);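 note: values given are mean percent inhibition of PI4K-beta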
measurement conditions: at 0.1 µM
test readout: inhibition (%)
Respond numerically; units are % and should not be typed.

Challenge: Supply measured inhibition of `COc1ccc2ncn(-c3cc(O[C@H](C)c4ccccc4Cl)c(C(N)=O)s3)c2c1` in your reply.
Response given: 1.3

Challenge: Identify measured inhibition corresponding to `C/C(Nc1ccc(S(N)(=O)=O)cc1)=C1/C(=O)Nc2ccccc21`
Response given: -1.12

Challenge: Could you please provide reported inhibition for `O=C(NCC1CC1)c1ccc(-c2cccc(C(=O)NC3CC3)c2)cc1` ? Thanks!
Response given: -4.62

Challenge: Please look at this molecule and report its inhibition: `COc1cc(Nc2ncc3c(C)nc(-c4cccc(C(F)(F)F)c4)n3n2)cc(OC)c1OC`
Response given: 7.16

Challenge: Identify measured inhibition associated with `N#Cc1ccc(Oc2nccc(-c3c(-c4ccc(F)cc4)ncn3C3CCNCC3)n2)cc1`
Response given: 1.26

Challenge: For the molecule `COc1cccc(/C=N/Nc2ncnc3c2cnn3-c2cccc(OC)c2)c1` , report inhibition.
Response given: 3.72

* * *

Please respond with reported inhibition for every item in the list.
measurement target: Serine/threonine-protein kinase PLK1 (Homo sapiens) (UniProt P53350);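 note: reported value is a mean PLK1 inhibition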
Sequence (P53350 whole entry): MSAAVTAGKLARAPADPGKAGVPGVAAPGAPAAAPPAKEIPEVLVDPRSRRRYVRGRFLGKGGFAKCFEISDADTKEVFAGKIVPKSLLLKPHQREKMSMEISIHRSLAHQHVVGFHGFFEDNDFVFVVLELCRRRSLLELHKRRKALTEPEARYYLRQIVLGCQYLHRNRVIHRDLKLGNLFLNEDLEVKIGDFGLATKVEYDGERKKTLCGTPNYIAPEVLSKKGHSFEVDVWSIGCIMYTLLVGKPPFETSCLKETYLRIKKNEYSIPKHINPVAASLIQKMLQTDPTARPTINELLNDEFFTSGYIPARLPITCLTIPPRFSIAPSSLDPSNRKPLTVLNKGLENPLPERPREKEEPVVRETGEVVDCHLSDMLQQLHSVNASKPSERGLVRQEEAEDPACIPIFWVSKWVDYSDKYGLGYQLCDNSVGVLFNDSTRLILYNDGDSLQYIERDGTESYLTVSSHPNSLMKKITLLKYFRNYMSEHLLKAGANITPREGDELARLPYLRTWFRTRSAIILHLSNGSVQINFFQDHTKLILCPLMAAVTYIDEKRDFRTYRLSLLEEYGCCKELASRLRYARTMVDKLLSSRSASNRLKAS
measurement conditions: at 1 µM
The response must be a number in % with no trailing unit.

Challenge: Could you please provide reported inhibition for `CN1CCN(CCCNc2nc3ccc(Oc4ccc(NC(=O)Nc5cc(C(F)(F)F)ccc5F)cc4)cc3[nH]2)CC1` ? Thanks!
Response given: 0.98

Challenge: Name the recorded inhibition of the item `CN(C)CCOc1ccc(-c2cc(-c3ccc4c(c3)CCC4=NO)c(-c3ccncc3)o2)cc1` in your answer.
Response given: -0.86

Challenge: Tell me its inhibition given `Fc1ccc(-c2nc3n(c2-c2ccncc2)CCS3)cc1` as the entry.
Response given: 4.09

Challenge: Identify the reported inhibition for the following entry. `CNC(=O)c1cncc(/C=C/c2c(C)cccc2C)c1`
Response given: 0.2

Challenge: Write down inhibition measured for item `FC(F)(F)c1cccc(Nc2nccc(-c3cnn4nc(-c5ccccc5)ccc34)n2)c1`
Response given: -0.34

* * *

measurement target: Ribosomal protein S6 kinase alpha-6 (Homo sapiens);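 note: each value is a mean inhibition of RSK4 from a GSK PKIS panel screen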
measurement conditions: at 1 µM
test readout: inhibition (%)
The response must be a number in % with no trailing unit.

Challenge: Give the reported inhibition for this molecule. `CCS(=O)(=O)c1ccc(OC)c(Nc2ncc(-c3cccc(-c4ccccc4F)c3)o2)c1`
Response given: 0.75

Challenge: Respond only with inhibition recorded for `NC(=O)c1cc(-c2ccncc2)cc(-c2ccccc2)c1N`
Response given: 2.63

Challenge: Look up and state reported inhibition for `CCc1cccc(CC)c1/C=C/c1cncc(C(=O)NC)c1`
Response given: 1.72

Challenge: Specify reported inhibition for the molecule shown: `C[C@@H](Oc1cc(-n2cnc3ccc(OCC4CCN(C)CC4)cc32)sc1C(N)=O)c1ccccc1Cl`
Response given: 42.4

Challenge: # return recorded inhibition for input `COc1ccc(C2=C(N3CCc4ccccc43)C(=O)NC2=O)cc1`
Response given: 4.12

Challenge: Report inhibition for `N#Cc1ccc(Oc2nccc(-c3c(-c4ccc(F)cc4)ncn3C3CCNCC3)n2)cc1`
Response given: 0.97

Challenge: # return recorded inhibition for entry `Cc1ccc(C(=O)NC2CCC2)cc1-c1ccc(C(=O)NCC2CC2)cc1`
Response given: 1.08

Challenge: Provide one value: measured inhibition of `O=C(Nc1n[nH]c2cc(-c3ccccc3)ccc12)C1CC1`
Response given: 3.11

Challenge: Complete the entry with inhibition for `c1ccc(-c2n[nH]cc2-c2ccnc(-c3ccc(OCCN4CCOCC4)cc3)c2)nc1`
Response given: -0.39

Challenge: Answer with the recorded inhibition for the molecule listed here: `CCS(=O)(=O)c1ccc(OC)c(Nc2ncc(-c3ccccc3Cl)o2)c1`
Response given: 3.92

Challenge: Indicate its recorded inhibition; the molecule in question is `NC(=O)c1ccc(Oc2nccc(-c3c(-c4ccc(F)cc4)ncn3C3CCNCC3)n2)cc1`
Response given: 3.24

Challenge: Note inhibition for the molecule shown: `COc1cc(Nc2ncc3c(C)nc(-c4cccc(Oc5ccccc5)c4)n3n2)cc(OC)c1OC`
Response given: 13.2

Challenge: Fill in inhibition for record `CCN(CC)Cc1ccc(Nc2nccc(-c3cnn4ncccc34)n2)cc1`
Response given: 9.62

Challenge: Indicate the recorded inhibition value for this molecule: `NC(=O)c1cc(-c2ccc(F)cc2)cc(-c2ccncc2)c1N`
Response given: 0.89

Challenge: Please report inhibition for the following molecule: `Fc1ccc(-c2ncn(C3CCNCC3)c2-c2ccnc(Oc3ccc4c(c3)OCO4)n2)cc1`
Response given: 3.03

Challenge: State its inhibition for this molecule: `COc1ccc2cc(-c3c(-c4ccncc4)nc(-c4ccc(S(C)(=O)=O)cc4C)n3C)ccc2c1`
Response given: 2.04

Challenge: Name the recorded inhibition of the item `CN(C)c1ccc2c(c1)/C(=C/Nc1ccc(S(N)(=O)=O)cc1)C(=O)N2` in your answer.
Response given: 20.9

Challenge: Give a short answer stating reported inhibition for `O=C1Nc2ccc(I)cc2C1=Cc1cc(Br)c(O)c(Br)c1` .
Response given: 3.84

Measured values drawn from ChEMBL document CHEMBL1961873 for this set.
